Test system: Rattus norvegicus
Test: Antiinflammatory activity in rat assessed as inhibition of carrageenan-induced paw edema at 100 mg/kg, po administered 1 hr followed by carrageenan challenge measured at 2 hrs by plethysmometer relative to control
Assay type: functional
Attribute measured: inhibition in vivo at 100 mg/kg (%)
Give a bare numeral; the unit % is implied.

Example cases with answers are listed next.
{"columns": ["Compound", "Measurement units", "inhibition in vivo at 100 mg/kg"],
 "data": [
  ["O=C(O)c1ccc(NC(=O)[C@@H]2CCCN2S(=O)(=O)c2ccc([N+](=O)[O-])cc2)cc1", "%", 50.1],
  ["O=C(O)c1ccc(NC(=O)[C@@H]2CC(O)CN2S(=O)(=O)c2ccc([N+](=O)[O-])cc2)cc1 (stereo partly drawn)", "%", 52.2]
]}

Prompt line: Tell me the measured inhibition in vivo at 100 mg/kg of O=C(O)c1ccc(NC(=O)[C@@H]2CC(O)CN2S(=O)(=O)c2ccccc2)cc1 (stereo partly drawn) , please.
Response line: 27.3

Prompt line: Tell me the measured inhibition in vivo at 100 mg/kg of O=C(O)c1ccc(NC(=O)[C@@H]2CCCN2S(=O)(=O)c2ccccc2)cc1 , please.
Response line: 29.4

Prompt line: Tell me the measured inhibition in vivo at 100 mg/kg of Cc1ccccc1S(=O)(=O)N1CC(O)C[C@H]1C(=O)Nc1ccc(C(=O)O)cc1 (stereo partly drawn) , please.
Response line: 23.4

Prompt line: Tell me the measured inhibition in vivo at 100 mg/kg of Cc1ccc(S(=O)(=O)N2CC(O)C[C@H]2C(=O)Nc2ccc(C(=O)O)cc2)cc1 (stereo partly drawn) , please.
Response line: 67.2

Prompt line: Tell me the measured inhibition in vivo at 100 mg/kg of Cc1ccccc1S(=O)(=O)N1CCC[C@H]1C(=O)Nc1ccc(C(=O)O)cc1 , please.
Response line: 36.3

Prompt line: Tell me the measured inhibition in vivo at 100 mg/kg of Cc1ccc(S(=O)(=O)N2CCC[C@H]2C(=O)Nc2ccc(C(=O)O)cc2)cc1 , please.
Response line: 36.3

* * *

Test system: Mus musculus
Assay: Toxicity in ip dosed mouse measured over 72 hrs
Format: organism-based
Settings: in vivo
Field 'label' (enum: Satisfied / Not satisfied). Set to Satisfied when LD50 is strictly under 10 µM/g; else Not satisfied.

The following molecules have reported results that may help.
{"columns": ["Molecule", "Class"],
 "data": [
  ["O=C(O)c1ccc(NC(=O)[C@@H]2CC(O)CN2S(=O)(=O)c2ccccc2)cc1 (some centres undefined)", "Not satisfied"],
  ["O=C(O)c1ccc(NC(=O)[C@@H]2CCCN2S(=O)(=O)c2ccc([N+](=O)[O-])cc2)cc1", "Satisfied"],
  ["Nc1nc(N)nc(Nc2ccc([As]3SCC(CO)S3)cc2)n1 (centres undefined) [MELARSOPROL]", "Satisfied"],
  ["Cc1ccc(S(=O)(=O)N2CC(O)C[C@H]2C(=O)Nc2ccc(C(=O)O)cc2)cc1 (some centres undefined)", "Not satisfied"],
  ["Cc1ccccc1S(=O)(=O)N1CCC[C@H]1C(=O)Nc1ccc(C(=O)O)cc1", "Not satisfied"]
]}

Moving on to another molecule below.
Prompt line: Determine whether this molecule shows LD50 lower than 10 µM/g (ties excluded): Cc1ccc(S(=O)(=O)N2CCC[C@H]2C(=O)Nc2ccc(C(=O)O)cc2)cc1
Response line: Not satisfied

Where do the numbers come from? From ChEMBL document CHEMBL4152268.
